Origin of measurements: PubChem BioAssay AID449762

- RUN_DESCRIPTION: M. tuberculosis growth inhibition, HTS (AID 449762);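 also: bacterial growth assessed after seven days of incubation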
- EXPERIMENTAL_CONDITIONS: M. tuberculosis H37Rv growth inhibition, 7H9 media; at 25 µM; hits give high values
Hit rate of the full screen: of about 330,000 compounds, about 1,900 (0.58%) were called active. Roughly 4% stayed inconclusive and do not appear here. The list is a sample of the results. Measured potencies and affinities stand elsewhere.
MEASUREMENT_KIND: inhibition (%)
Numbers only, in %.

Batch lookup, inhibition per entry.
1. O=C(NCc1cccnc1)/C(=C/c1ccc(-c2cccc(C(F)(F)F)c2)o1)NC(=O)c1ccccc1
2. O=C(NCc1ccccc1)C(=O)Nc1nc(C23CC4CC(CC(C4)C2)C3)cs1
3. CN(CCO)c1cc(N2CCC3(CC2)OCCO3)c2nonc2c1[N+](=O)[O-]

[11.6, 1.12, -10.9]

====

What inhibition was measured for each of the following?
- RUN_DESCRIPTION: M. tuberculosis growth inhibition, HTS (AID 449762);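 also: bacterial growth assessed after seven days of incubation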
- EXPERIMENTAL_CONDITIONS: M. tuberculosis H37Rv growth inhibition, 7H9 media; at 25 µM; hits give high values
About 1,900 (0.58%) of roughly 330,000 compounds were called active. Not shown: some 4% with an inconclusive outcome. Only a sample is shown. Measured potencies and affinities stand elsewhere.
One number for each entry, in %.

> print(dat)
                  compound.structure.string  measurement.kind  assay.value
1               O=C(CN1CCOc2ccccc21)N1CCCC1        inhibition        -8.18
2  COc1ccc(NC(=O)C23CC4CC(CC(Cl)(C4)C2)C3)cc1S(=O)(=O)N1CCOCC1        inhibition          1.2

Here's the next entry for you.
# query: inhibition of entry Cn1nc(C(C)(C)C)cc1NC(=O)Nc1ccc(Cl)cc1 6.33

====

- RUN_DESCRIPTION: M. tuberculosis growth inhibition, HTS (AID 449762);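 also: bacterial growth assessed after seven days of incubation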
- EXPERIMENTAL_CONDITIONS: M. tuberculosis H37Rv growth inhibition, 7H9 media; at 25 µM; hits give high values
Out of some 330,000 compounds screened, about 1,900 (0.58%) were called active. About 4% were inconclusive and are not listed. These entries were drawn from the full list. Measured potencies and affinities stand elsewhere.
Assign inhibition to each entry below.
Give bare numbers, in %.

> print(dat)
                                   compound  unit.string  assay.value
1              Cc1ccc(OCCCCNC2CCCCC2)c(C)c1            %         0.93
2  Cc1cc(-c2c(C)[nH]n(-c3ccccc3)c2=O)n(-c2ccccc2)n1            %        -6.21
3  CSCCC(NC(=O)COc1ccccc1)C(=O)NCCOc1ccc(C)cc1 (stereo unspecified)            %         1.39
4       Cc1[nH]n(-c2ccccc2)c(=O)c1-c1ccccc1            %         2.82

// each listed compound needs a value for inhibition
1. COc1ccc2c3n(nc2c1)CCN=C3c1ccc(Cl)cc1
2. CCN(CC)S(=O)(=O)c1ccc(/C=C/C(=O)OCC(=O)N(C)C)cc1
3. CCN(CC)S(=O)(=O)c1ccc(/C=C/C(=O)OCC(=O)N(C(C)C)C(C)C)cc1
4. O=C(c1cc(COc2c(F)cccc2F)on1)N1CCN(C2CCCCC2)CC1
5. CCCCn1c2ccccc2c2cc(CC(N)=O)ccc21
6. COc1ccc(/C=C2\Sc3ccc(C(=O)N4CCCC4)cc3N(C)C2=O)cc1OC

[4.84, 4.6, 3.48, 10.1, 2.07, 7.11]

Would you mind telling me what inhibition value was observed for CC(C)(C)N(Cc1ccccc1)C(=O)COC(=O)CNC(=O)c1ccco1 ? 5.79
